# Test system: NCI-H460
# METHOD_DESCRIPTION: Cytotoxicity against human NCI-H460 cells assessed as cell growth inhibition at 10 uM after 48 hrs by SRB assay relative to control
# Assay type: functional
# CONDITION_DESCRIPTION: NCI-H460, 48 h, read-out: GI
MEASURED_METRIC: inhibition of growth at 10 µM (%)
Answer in %, number only, no unit symbol.

Summary for this molecule, "O=c1nc(N2CCOCC2)oc2ccc(-c3cccc4c3sc3ccccc34)cc12" : inhibition of growth at 10 µM is -1.46

Noted for "O=c1nc(N2CCOCC2)oc2c(-c3cccc4c3sc3ccccc34)cccc12" : its inhibition of growth at 10 µM reads 4.79

Value of measured inhibition of growth at 10 µM for the entry "O=c1nc(N2CCOCC2)oc2c(-c3ccsc3)cccc12" : -4.22

For "O=c1nc(N2CCOCC2)oc2c(-c3cccc4c3oc3ccccc34)cccc12" the molecule record lists inhibition of growth at 10 µM as -2.97

For record "NC(=O)c1ccc(-c2cccc3c(=O)nc(N4CCOCC4)oc23)cc1" the listed inhibition of growth at 10 µM is -5.06

The recorded inhibition of growth at 10 µM for entry "O=c1nc(N2CCOCC2)oc2c(-c3cccc4ccccc34)cccc12" equals -10

Reported inhibition of growth at 10 µM of "COc1ccc(-c2cccc3c(=O)nc(N4CCOCC4)oc23)cc1" : -5.69

Form: molecule = "O=c1nc(N2CCOCC2)oc2c(-c3cccs3)cccc12" ; inhibition of growth at 10 µM = -5.8

###

# System: A498
# METHOD_DESCRIPTION: Cytotoxicity against human A498 cells assessed as cell growth inhibition at 10 uM after 48 hrs by SRB assay relative to control
# Assay type: functional
# CONDITION_DESCRIPTION: A498, 48 h, read-out: GI
Give fulfilled when the value for inhibition of growth at 10 µM is at least 40%. Give not fulfilled when it is less.

Req: Decide: inhibition of growth at 10 µM of "O=c1nc(N2CCOCC2)oc2ccc(-c3cccc4c3sc3ccccc34)cc12" >= 40%?
Resp: not fulfilled

Req: Entry "O=c1nc(N2CCOCC2)oc2c(-c3cccs3)cccc12" : is its inhibition of growth at 10 µM no less than 40%?
Resp: not fulfilled

Req: Determine whether measured inhibition of growth at 10 µM meets or exceeds 40% for "O=c1nc(N2CCOCC2)oc2c(-c3cccc4c3sc3ccccc34)cccc12"
Resp: fulfilled

Req: Determine whether this molecule has inhibition of growth at 10 µM no lower than 40%: "O=c1nc(N2CCOCC2)oc2c(-c3cccc4c3oc3ccccc34)cccc12"
Resp: not fulfilled

Req: Is it the case that "O=c1nc(N2CCOCC2)oc2c(-c3ccsc3)cccc12" has inhibition of growth at 10 µM reaching or exceeding 40%?
Resp: not fulfilled

Req: inhibition of growth at 10 µM >= 40% for "COc1ccc(-c2cccc3c(=O)nc(N4CCOCC4)oc23)cc1" ?
Resp: not fulfilled

Req: Could you please find out whether "NC(=O)c1ccc(-c2cccc3c(=O)nc(N4CCOCC4)oc23)cc1" has inhibition of growth at 10 µM that meets 40% or exceeds it?
Resp: not fulfilled

Req: Quick check, inhibition of growth at 10 µM >= 40%? "O=c1nc(N2CCOCC2)oc2c(-c3cccc4ccccc34)cccc12"
Resp: fulfilled
